Source of measurements: ChEMBL document CHEMBL2417469

# Test system: MOLT-4
# test_method_notes: Cytotoxicity against human MOLT4 cells after 48 hrs by SRB assay
# Assay type: functional
# setup_conditions: MOLT-4, 48 h
Please assign criterion not met whenever GI50 is at or above 2000 nM, and criterion met whenever it is below.

Prompt: Confirm or reject: GI50 of COc1cc(C2CC(c3ccc(Nc4ccnc5cc(Cl)ccc45)cc3)=NN2C=O)cc(OC)c1OC (stereo unspecified) lies strictly below 2000 nM
Response: criterion not met

Prompt: Confirm or reject: GI50 of COc1cccc2c1C(=O)c1c(O)c3c(c(O)c1C2=O)C[C@@](O)(C(=O)CO)C[C@@H]3O[C@H]1C[C@H](N)[C@H](O)[C@H](C)O1 [DOXORUBICIN] lies strictly below 2000 nM
Response: criterion met

Prompt: Confirm or reject: GI50 of Cc1ccc(C2CC(c3ccc(Nc4ccnc5cc(Cl)ccc45)cc3)=NN2C=O)cc1 (stereo unspecified) lies strictly below 2000 nM
Response: criterion not met

Prompt: Confirm or reject: GI50 of O=CN1N=C(c2ccc(Nc3ccnc4cc(Cl)ccc34)cc2)CC1c1ccc(Cl)cc1 (stereo unspecified) lies strictly below 2000 nM
Response: criterion met

Prompt: Confirm or reject: GI50 of COc1cc(C2CC(c3cccc(Nc4ccnc5cc(Cl)ccc45)c3)=NN2C=O)cc(OC)c1OC (stereo unspecified) lies strictly below 2000 nM
Response: criterion met

Prompt: Confirm or reject: GI50 of O=CN1N=C(c2cccc(Nc3ccnc4cc(Cl)ccc34)c2)CC1c1ccc(Cl)cc1 (stereo unspecified) lies strictly below 2000 nM
Response: criterion met

Prompt: Confirm or reject: GI50 of COc1ccc(C2CC(c3ccc(Nc4ccnc5cc(Cl)ccc45)cc3)=NN2C=O)cc1 (stereo unspecified) lies strictly below 2000 nM
Response: criterion not met

Prompt: Confirm or reject: GI50 of CC(=O)N1N=C(c2ccc(Nc3ccnc4cc(Cl)ccc34)cc2)CC1c1ccc(Cl)cc1 (stereo unspecified) lies strictly below 2000 nM
Response: criterion not met

Prompt: Confirm or reject: GI50 of O=CN1N=C(c2ccc(Nc3ccnc4cc(Cl)ccc34)cc2)CC1c1ccccc1 (stereo unspecified) lies strictly below 2000 nM
Response: criterion not met

Prompt: Confirm or reject: GI50 of O=CN1N=C(c2cccc(Nc3ccnc4cc(Cl)ccc34)c2)CC1c1ccccc1 (stereo unspecified) lies strictly below 2000 nM
Response: criterion met

Prompt: Confirm or reject: GI50 of COc1ccc(C2CC(c3cccc(Nc4ccnc5cc(Cl)ccc45)c3)=NN2C=O)cc1 (stereo unspecified) lies strictly below 2000 nM
Response: criterion met

* * *

# Tested on: OVCAR-4
# test_method_notes: Cytotoxicity against human OVCAR4 cells after 48 hrs by SRB assay
# Assay type: functional
# setup_conditions: OVCAR-4, 48 h
measured_quantity: GI50 (µM)
Return type: number; implicit unit µM.

The measured GI50 associated with COc1cc(C2CC(c3ccc(Nc4ccnc5cc(Cl)ccc45)cc3)=NN2C=O)cc(OC)c1OC (stereo unspecified) reads 3.19

The measured GI50 associated with O=CN1N=C(c2cccc(Nc3ccnc4cc(Cl)ccc34)c2)CC1c1ccc(Cl)cc1 (stereo unspecified) reads 4.13

The measured GI50 associated with CC(=O)N1N=C(c2ccc(Nc3ccnc4cc(Cl)ccc34)cc2)CC1c1ccc(Cl)cc1 (stereo unspecified) reads 6.92

The measured GI50 associated with O=CN1N=C(c2ccc(Nc3ccnc4cc(Cl)ccc34)cc2)CC1c1ccccc1 (stereo unspecified) reads 3.88

The measured GI50 associated with COc1ccc(C2CC(c3ccc(Nc4ccnc5cc(Cl)ccc45)cc3)=NN2C=O)cc1 (stereo unspecified) reads 13.4

The measured GI50 associated with COc1cccc2c1C(=O)c1c(O)c3c(c(O)c1C2=O)C[C@@](O)(C(=O)CO)C[C@@H]3O[C@H]1C[C@H](N)[C@H](O)[C@H](C)O1 reads 0.37
